Where do these numbers come from? They come from ChEMBL document CHEMBL4418299.

molecular target: Macrophage colony-stimulating factor 1 receptor (Homo sapiens, UniProt P07333); test: Displacement of kinase tracer 236 from recombinant human His-tagged CSF1R cytoplasmic domain (538 to 910 residues) expressed in baculovirus-infected insect cells measured after 5 hrs by TR-FRET based LanthaScreen assay
Sequence (P07333 whole entry, the tested form may be a part): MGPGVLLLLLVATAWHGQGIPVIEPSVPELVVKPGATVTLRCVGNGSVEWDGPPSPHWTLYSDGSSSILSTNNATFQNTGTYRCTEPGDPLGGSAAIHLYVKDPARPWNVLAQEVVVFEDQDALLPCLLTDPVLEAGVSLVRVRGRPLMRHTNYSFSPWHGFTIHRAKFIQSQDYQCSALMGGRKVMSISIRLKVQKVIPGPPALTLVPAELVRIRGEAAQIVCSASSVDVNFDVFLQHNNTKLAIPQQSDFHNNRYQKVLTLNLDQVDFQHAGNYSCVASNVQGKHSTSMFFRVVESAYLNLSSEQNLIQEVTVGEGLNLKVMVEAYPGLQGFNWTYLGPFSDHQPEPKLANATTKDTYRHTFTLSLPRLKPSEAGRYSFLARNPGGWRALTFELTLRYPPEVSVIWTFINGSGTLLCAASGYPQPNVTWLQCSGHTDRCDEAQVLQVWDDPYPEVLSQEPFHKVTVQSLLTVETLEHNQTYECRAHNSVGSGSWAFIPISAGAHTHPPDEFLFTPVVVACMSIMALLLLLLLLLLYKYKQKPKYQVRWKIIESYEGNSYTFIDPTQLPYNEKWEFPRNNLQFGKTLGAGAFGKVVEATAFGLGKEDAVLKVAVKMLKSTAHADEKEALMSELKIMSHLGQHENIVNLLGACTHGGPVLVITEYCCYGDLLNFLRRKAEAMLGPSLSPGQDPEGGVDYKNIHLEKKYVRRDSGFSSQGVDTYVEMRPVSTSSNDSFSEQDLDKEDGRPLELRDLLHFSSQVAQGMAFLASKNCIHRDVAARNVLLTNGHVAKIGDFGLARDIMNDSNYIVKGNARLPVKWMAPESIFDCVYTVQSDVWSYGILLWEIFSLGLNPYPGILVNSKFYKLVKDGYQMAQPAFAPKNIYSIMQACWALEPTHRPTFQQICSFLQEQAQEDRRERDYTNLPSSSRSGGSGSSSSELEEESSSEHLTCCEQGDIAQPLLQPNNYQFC
pIC50: −log10 of the molar value.
Listing: pIC50 of selected molecules
property-measured: pIC50

>>> print(df.to_string())
                            compound_string                         system_under_test  property_measured  endpoint_result
0  Nc1ncnc2c3c(n(-c4ccc(NC(=O)CC5CCN(C(=O)OCc6ccccc6)CC5)cc4)c12)CCC3  Macrophage colony-stimulating factor 1 receptor (Homo sapiens, UniProt P07333)              pIC50     6.70 to 8.00
1  COc1ccc(NC(=O)Cc2ccc(-n3c4c(c5ncnc(N)c53)CCC4)cc2)cc1F  Macrophage colony-stimulating factor 1 receptor (Homo sapiens, UniProt P07333)              pIC50           > 8.00
2  COc1cc(-n2c3c(c4ncnc(N)c42)CCC3)ccc1NC(=O)Cc1ccc(C2(O)COC2)cc1  Macrophage colony-stimulating factor 1 receptor (Homo sapiens, UniProt P07333)              pIC50           > 8.00

###

target: Macrophage colony-stimulating factor 1 receptor (Homo sapiens, UniProt P07333); assay: Displacement of kinase tracer 236 from recombinant human His-tagged CSF1R cytoplasmic domain (538 to 910 residues) expressed in baculovirus-infected insect cells measured after 5 hrs by TR-FRET based LanthaScreen assay
pIC50: −log10 of the molar value.
# Lookup of reported pIC50 keyed by entry
property-measured: pIC50

>>> print(df.to_string())
                            compound_string  endpoint_result
0  COc1cccc(CC(=O)Nc2ccc(-n3c4c(c5ncnc(N)c53)CCC4)cc2)n1     6.70 to 8.00
1  Cn1ccc2cc(CC(=O)Nc3ccc(-n4c5c(c6ncnc(N)c64)CCC5)cc3)cnc21           > 8.00
2  Nc1ncnc2c3c(n(-c4ccc(NC(=O)Cc5ccc(C(F)(F)F)nn5)cc4)c12)CCC3     6.70 to 8.00
3  Nc1ncnc2c3c(n(-c4ccc(NC(=O)Cc5nnc(C(F)(F)F)o5)cc4)c12)CCC3           < 6.70
4  CC(C)(C)c1ccn(CC(=O)Nc2ccc(-n3c4c(c5ncnc(N)c53)COC4)cc2)n1     6.70 to 8.00
5  COc1cc(-n2c3c(c4ncnc(N)c42)CCC3)ccc1NC(=O)Cn1nc(C)cc1C(F)(F)F     6.70 to 8.00
6  COc1cc(-n2c3c(c4ncnc(N)c42)COC3)ccc1NC(=O)Cc1ccnc(C(F)(F)F)c1             7.30
7  COc1cc(-n2c3c(c4ncnc(N)c42)CCC3)ccc1NC(=O)Cc1coc(C(C)C)n1           > 8.00

###

target: Macrophage colony-stimulating factor 1 receptor (Homo sapiens, UniProt P07333); assay: Displacement of kinase tracer 236 from recombinant human His-tagged CSF1R cytoplasmic domain (538 to 910 residues) expressed in baculovirus-infected insect cells measured after 5 hrs by TR-FRET based LanthaScreen assay
pIC50: −log10 of the molar value.
property-measured: pIC50

In [3]: df
Out[3]:
                            compound_string  endpoint_result
0  COc1cc(-n2c3c(c4ncnc(N)c42)CCC3)ccc1CC(=O)Nc1ccc(C(F)(F)F)nc1           > 8.00
1  Nc1ncnc2c3c(n(-c4ccc(CC(=O)Nc5ccc(C(F)(F)F)cn5)cc4)c12)COC3     6.70 to 8.00
2  Cn1cc(C(=O)Nc2ccc(-n3c4c(c5ncnc(N)c53)CCC4)cc2)c2ccccc21     6.70 to 8.00
3  COc1cc(-n2c3c(c4ncnc(N)c42)CCC3)ccc1NC(=O)CN1C(=O)COc2ccccc21     6.70 to 8.00
4  COc1cc(-n2c3c(c4ncnc(N)c42)CCC3)ccc1NC(=O)Cc1ccccc1     6.70 to 8.00
